System: Acinetobacter baumannii
Test: Antimicrobial activity against Acinetobacter baumannii 9043 isolate harboring bla IMP-1 carrying integron In86 containing aminoglycoside resistance gene aac(6')-3
Type: functional
READOUT: MIC

Notebook entry, Acinetobacter baumannii assay: MIC of COc1c(N2CCNC(C)C2)c(F)cc2c(=O)c(C(=O)O)cn(C3CC3)c12 (centres undefined) = ?
> 4 µg/mL

Notebook entry, Acinetobacter baumannii assay: MIC of CC1(C)S[C@@H]2[C@H](NC(=O)[C@H](N)c3ccccc3)C(=O)N2[C@H]1C(=O)O = ?
> 16 µg/mL

Notebook entry, Acinetobacter baumannii assay: MIC of C[C@@H](O)[C@H]1C(=O)N2C(C(=O)O)=C(SCCNC=N)C[C@H]12 [IMIPENEM ANHYDROUS] = ?
> 8 µg/mL

Notebook entry, Acinetobacter baumannii assay: MIC of NCC[C@H](O)C(=O)N[C@@H]1C[C@H](N)[C@@H](O[C@H]2O[C@H](CN)[C@@H](O)[C@H](O)[C@H]2O)[C@H](O)[C@H]1O[C@H]1O[C@H](CO)[C@@H](O)[C@H](N)[C@H]1O = ?
> 32 µg/mL

Notebook entry, Acinetobacter baumannii assay: MIC of CCN1CCN(C(=O)N[C@@H](C(=O)N[C@@H]2C(=O)N3[C@@H]2SC(C)(C)[C@@H]3C(=O)O)c2ccccc2)C(=O)C1=O = ?
> 128 µg/mL

Notebook entry, Acinetobacter baumannii assay: MIC of O=C(O)c1cn(C2CC2)c2cc(N3CCNCC3)c(F)cc2c1=O = ?
> 2 µg/mL

Notebook entry, Acinetobacter baumannii assay: MIC of CC1(C)S[C@@H]2[C@H](NC(=O)[C@H](C(=O)O)c3ccsc3)C(=O)N2[C@H]1C(=O)O = ?
> 128 µg/mL

Notebook entry, Acinetobacter baumannii assay: MIC of CCN[C@@H]1C[C@H](N)[C@@H](O[C@H]2OC(CN)=CC[C@H]2N)[C@H](O)[C@H]1O[C@H]1OC[C@](C)(O)[C@H](NC)[C@H]1O = ?
> 32 µg/mL

Notebook entry, Acinetobacter baumannii assay: MIC of C[C@H]1COc2c(N3CCN(C)CC3)c(F)cc3c(=O)c(C(=O)O)cn1c23.C[C@H]1COc2c(N3CCN(C)CC3)c(F)cc3c(=O)c(C(=O)O)cn1c23.O = ?
> 4 µg/mL

Notebook entry, Acinetobacter baumannii assay: MIC of C[C@@H](O)[C@H]1C(=O)N2C(C(=O)O)=C(S[C@@H]3CN[C@H](C(=O)N(C)C)C3)[C@H](C)[C@H]12 = ?
> 8 µg/mL

Notebook entry, Acinetobacter baumannii assay: MIC of NC[C@H]1O[C@H](O[C@H]2[C@H](O)[C@@H](O[C@H]3O[C@H](CO)[C@@H](O)[C@H](N)[C@H]3O)[C@H](N)C[C@@H]2N)[C@H](N)C[C@@H]1O = ?
16 µg/mL

Notebook entry, Acinetobacter baumannii assay: MIC of C[C@H]1[C@H](NC(=O)/C(=N\OC(C)(C)C(=O)O)c2csc(N)n2)C(=O)N1S(=O)(=O)O = ?
> 16 µg/mL

Notebook entry, Acinetobacter baumannii assay: MIC of CC(C)(O/N=C(\C(=O)N[C@@H]1C(=O)N2C(C(=O)[O-])=C(C[n+]3ccccc3)CS[C@H]12)c1csc(N)n1)C(=O)O = ?
> 16 µg/mL

Notebook entry, Acinetobacter baumannii assay: MIC of CO/N=C(\C(=O)N[C@@H]1C(=O)N2C(C(=O)[O-])=C(C[N+]3(C)CCCC3)CS[C@H]12)c1csc(N)n1 = ?
> 16 µg/mL
